All figures here come from patent US20260232767A1.

experiment: Plasma concentrations (PK), Example 1; assay type: in vivo, human; conditions: human, plasma, oral, 25 mg, weight >90 kg, 25 mg QD, Week 12, Peak; read-out: Plasma concentration, Mean
METRIC NAME: level at 2016 h (ng/mL)
Lab book: enter the figure in ng/mL, no units written.

stdin: // query level at 2016 h value for entry CC(=O)NCCCC[C@@H]1NC(=O)[C@H](Cc2c[nH]c3c(C)cccc23)NC(=O)[C@H]([C@@H](C)O)NC(=O)[C@H](CC(N)=O)NC(=O)[C@@H](NC(C)=O)C(C)(C)SSC(C)(C)[C@@H](C(=O)N[C@@H](Cc2ccc(OCCN)cc2)C(=O)N[C@@H](Cc2ccc3ccccc3c2)C(=O)NC2(C(=O)N[C@@H](CCC(=O)O)C(=O)N[C@@H](CC(N)=O)C(=O)N[C@@H](Cc3cccnc3)C(=O)N(C)CC(N)=O)CCOCC2)NC1=O [IL-23 receptor antagonist peptide]
stdout: 0.281
